These entries and their values trace back to patent US9938262B2.

target: FSHR (Homo sapiens); construct: expressed in transfected cells; host or cells: CHO (Cho-FSHR-LUC-1-1-43); test: EC50 of cyclic AMP production in CHO FSHR cells + EC20 FSH (Assay A); format: cell-based; settings: CHO FSHR cells + EC20 FSH; Table 1; read-out: Assay A EC50 of cyclic AMP production
Sequence (P23945 18-695): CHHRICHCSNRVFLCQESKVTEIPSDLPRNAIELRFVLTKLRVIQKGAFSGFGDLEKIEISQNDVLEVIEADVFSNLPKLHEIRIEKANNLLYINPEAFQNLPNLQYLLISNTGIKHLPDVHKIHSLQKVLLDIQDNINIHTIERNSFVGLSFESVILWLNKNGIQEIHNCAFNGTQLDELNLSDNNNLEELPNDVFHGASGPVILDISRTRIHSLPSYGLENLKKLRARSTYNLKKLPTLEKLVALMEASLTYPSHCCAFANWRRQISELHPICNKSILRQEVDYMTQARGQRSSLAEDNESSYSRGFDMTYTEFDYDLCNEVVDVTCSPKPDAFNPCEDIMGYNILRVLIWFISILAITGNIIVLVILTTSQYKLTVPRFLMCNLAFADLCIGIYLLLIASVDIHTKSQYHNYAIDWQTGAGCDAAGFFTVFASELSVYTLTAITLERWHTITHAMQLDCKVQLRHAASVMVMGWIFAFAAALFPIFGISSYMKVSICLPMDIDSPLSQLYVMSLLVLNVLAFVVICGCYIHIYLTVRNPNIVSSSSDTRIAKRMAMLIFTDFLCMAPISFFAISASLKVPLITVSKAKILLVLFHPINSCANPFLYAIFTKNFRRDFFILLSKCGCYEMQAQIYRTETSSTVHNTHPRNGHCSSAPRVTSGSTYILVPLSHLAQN
Sequence (P01215 25-116 partner): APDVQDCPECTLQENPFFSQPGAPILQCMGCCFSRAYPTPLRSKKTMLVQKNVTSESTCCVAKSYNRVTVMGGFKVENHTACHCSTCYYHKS
Sequence (P01225 19-129 partner): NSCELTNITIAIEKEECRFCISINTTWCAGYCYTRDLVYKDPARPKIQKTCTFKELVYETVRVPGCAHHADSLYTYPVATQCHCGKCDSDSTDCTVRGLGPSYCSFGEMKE
pEC50: −log10 of the molar value.
Quantity: pEC50

Query `COc1ccc(C(=O)Nc2cc(C(=O)NCCCN3CCCC3=O)ccc2N2CCN(c3ccccc3C)CC2)c(OC)c1` yields pEC50 of 5.00 to 6.00

// field: pEC50; key: `COc1ccc(-c2c[nH]nc2CNC(=O)c2ccc(N3CCN(c4ccccc4C)CC3)c(NC(=O)c3ccc(C)o3)c2)cc1` ; value = 5.00 to 6.00

---

Target: follicle-stimulating hormone (FSH) receptor (Rattus norvegicus)
Construct: endogenous in cells; host or cells: rat granulosa cells
Sequence (P20395 18-692): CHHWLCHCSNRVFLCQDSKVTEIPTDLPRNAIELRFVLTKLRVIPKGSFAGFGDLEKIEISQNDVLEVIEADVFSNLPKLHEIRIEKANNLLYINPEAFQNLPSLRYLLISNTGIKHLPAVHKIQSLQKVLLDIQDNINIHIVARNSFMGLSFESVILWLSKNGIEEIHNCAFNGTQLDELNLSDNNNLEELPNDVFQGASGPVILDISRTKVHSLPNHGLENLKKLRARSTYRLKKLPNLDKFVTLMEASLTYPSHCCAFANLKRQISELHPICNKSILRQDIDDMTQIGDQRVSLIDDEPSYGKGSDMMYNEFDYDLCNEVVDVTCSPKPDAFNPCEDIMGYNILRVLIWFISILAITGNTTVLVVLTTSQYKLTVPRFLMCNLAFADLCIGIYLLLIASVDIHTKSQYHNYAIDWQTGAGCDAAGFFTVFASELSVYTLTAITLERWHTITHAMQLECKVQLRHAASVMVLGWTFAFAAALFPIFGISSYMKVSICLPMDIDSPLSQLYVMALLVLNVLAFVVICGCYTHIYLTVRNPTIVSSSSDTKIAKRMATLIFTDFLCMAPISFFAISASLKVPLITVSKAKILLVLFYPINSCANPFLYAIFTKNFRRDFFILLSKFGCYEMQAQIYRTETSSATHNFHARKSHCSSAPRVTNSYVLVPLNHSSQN
Test: Rat granulosa EC50 FSH (Assay B)
Assay type: cell-based
Details: rat granulosa cells; Table 1
pEC50: −log10 of the molar value.
Quantity: pEC50

Worked cases, answers included:
Cc1ccccc1N1CCN(c2ccc(C(=O)NCCCN3C(=O)CSC3=O)cc2NC(=O)c2ccco2)CC1 | 6.00 to 7.00
Cc1ccccc1N1CCN(c2ccc(C(=O)NCCCN3CCCC3=O)cc2NC(=O)c2ccccc2F)CC1 | 5.00 to 6.00
Cc1nc(C(=O)Nc2cc(C(=O)NCCCN3CCCC3=O)ccc2N2CCN(c3ccccc3C)CC2)cs1 | 6.00 to 7.00
Cc1ccccc1N1CCN(c2ccc(C(=O)NCCCN3CCCC3=O)cc2NC(=O)c2ccc(Cl)o2)CC1 | 6.00 to 7.00
CCc1nc(C(=O)Nc2cc(C(=O)NCCCN3CCCC3=O)ccc2N2CCN(c3ccccc3C)CC2)co1 | 6.00 to 7.00

// pEC50 (follicle-stimulating hormone (FSH) receptor (Rattus norvegicus)) for `Cc1ccccc1N1CCN(c2ccc(C(=O)NCCCN3CCCC3=O)cc2NC(=O)c2ccccc2)CC1` = 5.00 to 6.00

The reported pEC50 value, follicle-stimulating hormone (FSH) receptor (Rattus norvegicus), for `Cc1ccccc1N1CCN(c2ccc(C(=O)NCCCN3CCCC3=O)cc2NC(=O)c2occc2C)CC1` reads 5.00 to 6.00

---

Below is a list of entries, each paired with its recorded pEC50 value.
biological target: follicle-stimulating hormone (FSH) receptor (Rattus norvegicus); construct: endogenous in cells; host or cells: rat granulosa cells; experiment: Rat granulosa EC50 FSH (Assay B); type: cell-based; conditions: rat granulosa cells; Table 1
pEC50: −log10 of the molar value.

Worked cases, answers included:
Cc1ccccc1N1CCN(c2ccc(C(=O)NCCCN3CCCC3=O)cc2NC(=O)C2CC2)CC1 [Compound 84] | 6.00 to 7.00
Cc1ccccc1N1CCN(c2ccc(C(=O)NCCCc3cn[nH]c3)cc2NC(=O)c2ccco2)CC1 [Compound 152] | > 7.00
Cc1ccccc1N1CCN(c2ccc(C(=O)NCCCN3CCCC3=O)cc2NS(=O)(=O)c2cccc3cccnc23)CC1 [Compound 45] | 6.00 to 7.00
Cc1ccccc1N1CCN(c2ccc(C(=O)NCCCN3CCCC3=O)cc2NC(=O)c2cscn2)CC1 [Compound 73] | 5.00 to 6.00
Cc1nc(C(=O)Nc2cc(C(=O)NCCCN3CCCC3=O)ccc2N2CCN(c3ccccc3C)CC2)co1 [Compound 75] | < 5.00

Consider Cc1csc(C(=O)Nc2cc(C(=O)NCCCN3CCCC3=O)ccc2N2CCN(c3ccccc3C)CC2)n1 [Compound 203] . Its measured pEC50 is 6.00 to 7.00

Data point: Cc1ccccc1N1CCN(c2ccc(C(=O)NCCc3cccc(C(N)=O)c3)cc2NC(=O)c2ccco2)CC1 [Compound 188] ; pEC50 = 6.00 to 7.00

---

molecular target: follicle-stimulating hormone (FSH) receptor (Rattus norvegicus, UniProt P20395); construct: endogenous in cells; host or cells: rat granulosa cells; assay: Rat granulosa EC50 FSH (Assay B); format: cell-based; settings: rat granulosa cells; Table 2
As shown below, each of these compounds has a reported EC50 value.

Solved cases below.
O=C(NCCCN1CCCC1=O)c1ccc(N2CCN(c3ncccc3Cl)CC2)c(NC(=O)c2coc(C3CC3)n2)c1 [Compound 510] | 1 to 10 µM
Cc1ccccc1N1CCN(c2ccc(C(=O)NCCc3cccc(C(N)=O)c3)cc2NC(=O)c2coc(C3CC3)n2)CC1 [Compound 307] | 1 to 10 µM
Cc1ccc(C(=O)Nc2cc(C(=O)NCCCN3CCOC3=O)ccc2N2CCN(c3ccccc3C)CC2)o1 [Compound 322] | 1 to 10 µM
Cc1ccccc1N1CCN(c2ccc(C(=O)NCCCN3CCCC3=O)cc2NCc2ccccn2)CC1 [Compound 526] | > 10 µM
Cc1ccccc1N1CCN(c2ccc(C(=O)NCCCc3nn[nH]n3)cc2NC(=O)c2coc(C3CC3)n2)CC1 [Compound 392] | 0.1 to 1 µM
Cc1ccccc1N1CCN(c2ccc(C(=O)NCCCN3CCCC3=O)cc2NC(=O)c2ccn(C)n2)CC1 [Compound 435] | 0.1 to 1 µM

Moving on to the next compound.
So for Cc1ccc(C(=O)Nc2cc(C(=O)NCCCN3CCCC3=O)ccc2N2CCN(c3ccccc3C3CC3)CC2)o1 [Compound 523] , the logged EC50 turned out to be 0.1 to 1 µM

---

biological target: FSHR (Homo sapiens); construct: expressed in transfected cells; host or cells: CHO (Cho-FSHR-LUC-1-1-43); test: EC50 of cyclic AMP production in CHO FSHR cells + EC20 FSH (Assay A); format: cell-based; conditions: CHO FSHR cells + EC20 FSH; Table 2; read-out: Assay A EC50 of cyclic AMP production
Quantity: EC50

Illustrative cases are given below, each with its answer.
Cc1ccccc1N1CCN(c2ccc(C(=O)NCc3cccc(CN)c3)cc2NC(=O)c2ccco2)CC1 | 0.1 to 1 µM
Cc1ccccc1N1CCN(c2ccc(C(=O)NCCCC(=O)N(C)C)cc2NC(=O)c2coc(C3CC3)n2)CC1 | 0.1 to 1 µM
Cc1ccc(C(=O)Nc2cc(C(=O)NCCCc3cccc(O)c3)ccc2N2CCN(c3ccccc3C)CC2)o1 | 0.1 to 1 µM
COc1ccccc1CNC(=O)c1ccc(N2CCN(c3ccccc3C)CC2)c(NC(=O)c2coc(C3CC3)n2)c1 | 0.1 to 1 µM
Cc1ccccc1N1CCN(c2ccc(C(=O)NC[C@@H](O)CO)cc2NC(=O)c2coc(C3CC3)n2)CC1 | 0.1 to 1 µM

// `Cc1ccccc1N1CCN(c2ccc(C(=O)NCCCN3CCCC3=O)cc2NCc2ccccn2)CC1` : EC50 value = 0.1 to 1 µM

compound `Cc1ccccc1N1CCN(c2ccc(C(=O)NCCCc3nc(C)c(C)s3)cc2NC(=O)c2coc(C3CC3)n2)CC1` , EC50 observed: 0.1 to 1 µM

The recorded EC50 for entry `C=CCNC(=O)NCCCNC(=O)c1ccc(N2CCN(c3ccccc3C)CC2)c(NC(=O)c2coc(C3CC3)n2)c1` equals 0.1 to 1 µM

Record `Cc1ccnc(N2CCN(c3ccc(C(=O)NCCCN4CCCC4=O)cc3NC(=O)c3coc(C4CC4)n3)CC2)c1` , field EC50: 0.1 to 1 µM

Per the record, `O=C(NCCCN1CCCC1=O)c1ccc(N2CCN(c3ncccc3Cl)CC2)c(NC(=O)c2coc(C3CC3)n2)c1` has EC50 of < 0.1 µM

---

Measured pEC50, listed per entry for reference.
molecular target: FSHR (Homo sapiens); construct: expressed in transfected cells; host or cells: CHO (Cho-FSHR-LUC-1-1-43); assay: EC50 of cyclic AMP production in CHO FSHR cells + EC20 FSH (Assay A); assay type: cell-based; settings: CHO FSHR cells + EC20 FSH; Table 1; read-out: Assay A EC50 of cyclic AMP production
pEC50: −log10 of the molar value.

// worked examples, pEC50 included
Cc1ccccc1N1CCN(c2ccc(C(=O)N[C@@H](C)c3ccccc3)cc2NC(=O)c2ccco2)CC1 | 6.00 to 7.00
Cc1ccccc1N1CCN(c2ccc(C(=O)NCCCN3CCCC3=O)cc2NC(=O)CC2CC2)CC1 | 5.00 to 6.00

Data point: `Cc1cc(C(=O)Nc2cc(C(=O)NCCCN3CCCC3=O)ccc2N2CCN(c3ccccc3C)CC2)c(C)o1` ; pEC50 = 6.00 to 7.00

What the record says about `C=CC(=O)NCCCNC(=O)c1ccc(N2CCN(c3ccccc3C)CC2)c(NC(=O)c2ccco2)c1` : pEC50 is 6.00 to 7.00

`Cc1ccc(C(=O)Nc2cc(C(=O)NCCN3CCN(C(=O)OC(C)(C)C)CC3)ccc2N2CCN(c3ccccc3C)CC2)o1` yielded pEC50 of 5.00 to 6.00

# pEC50 (compound: `Cc1ccc(C(=O)Nc2cc(C(=O)NCCN3CCS(=O)(=O)CC3)ccc2N2CCN(c3ccccc3C)CC2)o1` ) is 5.00 to 6.00

// pEC50 value for `Cc1cc(C(=O)Nc2cc(C(=O)NCCCN3CCCC3=O)ccc2N2CCN(c3ccccc3C)CC2)c(C(F)(F)F)o1` : 6.00 to 7.00

pEC50 measured on `Cc1nc(C(=O)Nc2cc(C(=O)NCCCN3CCCC3=O)ccc2N2CCN(c3ccccc3C)CC2)cs1` = 6.00 to 7.00

Note to self: pEC50 recorded for `Cc1ccccc1N1CCN(c2ccc(C(=O)NCCCN3CCCC3=O)cc2NC(=O)c2coc(C(C)C)n2)CC1` was 5.00 to 6.00

The compound listed as `Cc1ccccc1N1CCN(c2ccc(C(=O)NCCCN3CCCC3=O)cc2NC(=O)c2sc(Cl)nc2C)CC1` has a reported pEC50 of < 5.00

Entry `Cc1ccccc1N1CCN(c2ccc(C(=O)NCCC(=O)N3CCCC3)cc2NC(=O)c2coc(C3CC3)n2)CC1` — recorded pEC50 = 5.00 to 6.00

Lookup result for `COc1ccc(C(=O)Nc2cc(C(=O)NCCCN3CCCC3=O)ccc2N2CCN(c3ccccc3C)CC2)o1` ; measured pEC50: 6.00 to 7.00

Short answer for `Cc1ccccc1N1CCN(c2ccc(C(=O)NCCCN3CCCC3=O)cc2NC(=O)c2cccc(O)c2)CC1` : pEC50 was < 5.00

Consider `Cc1ccccc1N1CCN(c2ccc(C(=O)NCCCN3CCCC3=O)cc2NC(=O)c2ccc(F)cc2)CC1` . Its measured pEC50 is 6.00 to 7.00

Form field pEC50, entry `Cc1ccccc1N1CCN(c2ccc(C(=O)NCCCN3CCCC3=O)cc2NC(=O)c2ccc(Cl)cc2)CC1` : 6.00 to 7.00
